# credit: PubChem BioAssay (NCI)

# Tested on: MDA-MB-231 breast
# runDescription: NCI-60 one-dose screen, 48 h
# conditionNotes: 10 µM unless noted
Compounds without any hit were thinned out: in the full panel of roughly 83,000, 20% have a hit. Active and inactive are the calls of the source. How the source made its calls: active means growth percent below 10; inactive means the rest.
// allowed return values: active, inactive

// query Check the results log: what was the call for CSCC[C@@H]1C(=O)N(C)[C@H](C(C)(C)C)N1C(=O)c1ccccc1 ?
// result inactive

// query Check the results log: what was the call for O=C1Nc2ccccc2/C1=C\c1ccccc1O ?
// result inactive

// query Check the results log: what was the call for CCOC(=O)C(C#N)=C1CCN(C)CC1 ?
// result inactive

// query Check the results log: what was the call for C/C(Cc1ccccc1)=N\O ?
// result inactive

// query Check the results log: what was the call for CCCC(=O)c1cccs1 ?
// result inactive

// query Check the results log: what was the call for C=CC(=O)OC1CCC(C(C)(C)CC)CC1 (stereo unspecified) ?
// result inactive

// query Check the results log: what was the call for CCOc1ccccc1NC(=O)CCl ?
// result inactive

// query Check the results log: what was the call for CC(=O)/C(C)=N\OC(=O)Nc1ccccc1 ?
// result inactive

// query Check the results log: what was the call for CC(O)C(F)(F)C(F)(F)C(F)(F)F (stereo unspecified) ?
// result inactive

// query Check the results log: what was the call for O=C(OC1CCCC1)c1ccccc1Cl ?
// result inactive

// query Check the results log: what was the call for COc1ccc(C2CC(c3ccccc3)=Nc3ccccc3S2)cc1 (stereo unspecified) ?
// result inactive

// query Check the results log: what was the call for CCOc1ccc(NC(=S)N2CCC(CCCC3CCN(C(=S)Nc4ccc(OCC)cc4)CC3)CC2)cc1 ?
// result inactive

// query Check the results log: what was the call for O=C(NC1CCCCC1)c1ccc(Cl)cc1 ?
// result inactive

// query Check the results log: what was the call for CCCCN(C=S)CCCC ?
// result inactive

// query Check the results log: what was the call for Cc1cc(NC(=O)c2ccccc2)c(Cl)cc1N ?
// result inactive

// query Check the results log: what was the call for O=C(O)c1ccccc1Cc1ccc2c(c1)CCCC2 ?
// result inactive

// query Check the results log: what was the call for CC(=O)NNC(=S)/N=C\C(C(=O)c1ccccc1)=C(/O)c1ccccc1 ?
// result inactive

// query Check the results log: what was the call for Cc1cc(Cl)cc(Cc2cc(Cl)cc(C)c2O)c1O ?
// result active

// query Check the results log: what was the call for Cc1ccc(S(N)(=O)=O)cc1Cl ?
// result inactive

---

# Test system: SK-MEL-5 melanoma
# runDescription: NCI-60 one-dose screen, 48 h
# conditionNotes: 10 µM unless noted
Compounds without any hit were thinned out: in the full panel of roughly 83,000, 20% have a hit. Activity calls are given as the source filed them. The calls were made as follows: active = growth percent below 10; inactive = the rest.
// allowed return values: active, inactive

>>> df
                                   compound     group
0  O=S(Cc1ccccc1)/C(=C/NC(=S)Nc1cc(Cl)ccc1Cl)c1ccccc1 (stereo unspecified)  inactive
1                                NNc1ncccn1  inactive
2  O=C(OCC1CCCO1)c1ccc([N+](=O)[O-])cc1 (stereo unspecified)  inactive
3  COc1cc2c(c(OC)c1OC)-c1ccc(SC)c(=O)cc1[C@@H](NC1OC(CO)C(O)C(O)C1O)CC2 (stereo partly specified)    active
4                  COc1ccc(NNS(=O)(=O)O)cc1  inactive

// query Check the results log: what was the call for N=C(N)c1nn(C2OC(CO)C(O)C2O)c2nc[nH]c(=O)c12 (stereo unspecified) ?
// result active

// query Check the results log: what was the call for CC(=O)Nc1ccc(O)c(C)c1 ?
// result inactive

// query Check the results log: what was the call for C=CCOc1ccc(Cl)cc1Cl ?
// result inactive

// query Check the results log: what was the call for CSc1cnc2ccccc2n1 ?
// result inactive

// query Check the results log: what was the call for CCCC(=O)CC(=O)c1ccccc1 ?
// result inactive

// query Check the results log: what was the call for CN(C)c1ccc2c(N(C)C)cc(N(C)C)nc2c1 ?
// result inactive

// query Check the results log: what was the call for Cc1cc2nc(C)c(C)nc2cc1C ?
// result inactive

// query Check the results log: what was the call for O=Cc1c(O)c2ccccc2[nH]c1=O ?
// result inactive

---

# System: UO-31 renal
# runDescription: NCI-60 one-dose screen, 48 h (100 = growth as untreated, 0 = no growth, -100 = all killed)
# conditionNotes: 10 µM unless noted
Compounds without any hit were thinned out: in the full panel of roughly 83,000, 20% have a hit.
property: growth (%)
Respond with the bare value in %.

Solved cases (10 shown):
In [3]: df
Out[3]:
                                   compound  property  observed
0       O=C(c1ccccc1)c1ccc(-c2ccc(O)cc2)cc1    growth      45.2
1                       O=C(O)Cc1ccc(Cl)cc1    growth      99.4
2  CCCCCCCCCCCCSC1=C(Cl)C(=O)C(OC)=C(OC)C1=O    growth      32.9
3                          NNC(=O)c1ccccc1N    growth      99.2
4      Nc1nc2nnc(-c3ccccc3)c(-c3ccccc3)n2n1    growth       106
5   CC1CC(C)S(=O)(=O)C1 (centres undefined)    growth       101
6        O=c1[nH]c(=O)c2cc(Cl)cc(Cl)c2[nH]1    growth      75.3
7                   COc1ccc(Br)c2c1C(=O)CC2    growth      85.4
8  ClCC(Cl)C1CCC(Cl)C(Cl)C1 (centres undefined)    growth      86.3
9                  C=CCc1cc(OC)c(OC)c(OC)c1    growth       105

// query Query (compound): O=C(O)c1ccc(OCc2ccccc2)cc1 ; field requested: growth
// result 89.6

// query Query (compound): O=S(=O)(c1ccc(NC(=S)NCc2cccnc2)cc1)N1CCCCC1 ; field requested: growth
// result 70.7

// query Query (compound): CN(C)Cc1ccccn1 ; field requested: growth
// result 87.8

---

Measured growth, listed per entry for reference.
# Test system: OVCAR-3 ovarian
# runDescription: NCI-60 one-dose screen, 48 h (100 = growth as untreated, 0 = no growth, -100 = all killed)
# conditionNotes: 10 µM unless noted
About 83,000 compounds went through this panel and 20% of them were active in at least one assay; those are over-represented in the sample as a whole. Calls of active or inactive are those of the source. How the source made its calls: active means growth percent below 10; inactive means the rest.

Solved cases (3 shown):
>>> df
                                   compound       testsystem  property         observed
0  CCCC(OC(C)=O)c1ccc2c(c1)OCO2 (configuration not stated)  OVCAR-3 ovarian    growth  105% (inactive)
1                     Cc1ccc(C2CCCCC2)cc1Br  OVCAR-3 ovarian    growth  104% (inactive)
2                       C=CCOc1ccc(Cl)cc1Cl  OVCAR-3 ovarian    growth  111% (inactive)

// query // map CC(=O)N(CCCCCCN(C(C)=O)C(C)=O)C(C)=O to recorded growth (system: OVCAR-3 ovarian)
// result 113% [100 µM] (inactive)

// query // map O=C(Nc1ccc([N+](=O)[O-])cc1)C(=O)Nc1ccc([N+](=O)[O-])cc1 to recorded growth (system: OVCAR-3 ovarian)
// result 103% (inactive)

// query // map O=C(CCl)Nc1ccccc1SCc1cc(Cl)cc2c1OCOC2 to recorded growth (system: OVCAR-3 ovarian)
// result 26.1% (inactive)

// query // map C=C(C)COc1ccc(C(C)(C)C)cc1 to recorded growth (system: OVCAR-3 ovarian)
// result 102% (inactive)

// query // map C=CCc1cc(OC)c(OC)c(OC)c1 to recorded growth (system: OVCAR-3 ovarian)
// result 93.1% (inactive)

// query // map CC(=O)Nc1ncc(S(=O)(=O)c2ccc([N+](=O)[O-])cc2)s1 to recorded growth (system: OVCAR-3 ovarian)
// result 120% (inactive)

---

# Tested on: U251 CNS
# runDescription: NCI-60 one-dose screen, 48 h (100 = growth as untreated, 0 = no growth, -100 = all killed)
# conditionNotes: 10 µM unless noted
About 83,000 compounds went through this panel and 20% of them were active in at least one assay; those are over-represented in the sample as a whole.
property: growth (%)
Respond with the bare value in %.

Solved cases (2 shown):
>>> df
                       compound  observed
0  O=C(NC(=S)N1CC=CCC1)c1ccccc1       104
1             O=Cc1ccc(O)c(O)c1       102

// query Query (compound): CSc1cnc2ccccc2n1 ; field requested: growth
// result 94.1

// query Query (compound): CCCC(OC(C)=O)c1ccc2c(c1)OCO2 (stereo not drawn) ; field requested: growth
// result 96
